Collected Molar enthalpy of transition or fusion values appear next to each entry.
test: Molar enthalpy of transition or fusion; conditions: Crystal; Adiabatic calorimetry
measuredMetric: Molar enthalpy of transition or fusion (kcal/mol)

{"molecule": "CCCC[N+]1(C)CCCC1.O=S(=O)([N-]S(=O)(=O)C(F)(F)F)C(F)(F)F", "measuredMetric": "Molar enthalpy of transition or fusion", "unitText": "kcal/mol", "readoutNumber": 5.23}
{"molecule": "CCCC[N+](C)(C)C.O=S(=O)([N-]S(=O)(=O)C(F)(F)F)C(F)(F)F [butyltrimethylammonium bis(trifluoromethylsulfonyl)imide]", "measuredMetric": "Molar enthalpy of transition or fusion", "unitText": "kcal/mol", "readoutNumber": 2.72}
{"molecule": "CCCCn1cc[n+](C)c1.O=S(=O)([O-])C(F)(F)F [1-butyl-3-methylimidazolium trifluoromethanesulfonate]", "measuredMetric": "Molar enthalpy of transition or fusion", "unitText": "kcal/mol", "readoutNumber": 4.64}
